meta.source: patent US20240239878A1

- assay-system: T1, human DLL3 antigen protein (Kactus Biosystems, Cat. No. DLL-HM103) (human, UniProt Q9NYJ7 27-492)
- T1 sequence: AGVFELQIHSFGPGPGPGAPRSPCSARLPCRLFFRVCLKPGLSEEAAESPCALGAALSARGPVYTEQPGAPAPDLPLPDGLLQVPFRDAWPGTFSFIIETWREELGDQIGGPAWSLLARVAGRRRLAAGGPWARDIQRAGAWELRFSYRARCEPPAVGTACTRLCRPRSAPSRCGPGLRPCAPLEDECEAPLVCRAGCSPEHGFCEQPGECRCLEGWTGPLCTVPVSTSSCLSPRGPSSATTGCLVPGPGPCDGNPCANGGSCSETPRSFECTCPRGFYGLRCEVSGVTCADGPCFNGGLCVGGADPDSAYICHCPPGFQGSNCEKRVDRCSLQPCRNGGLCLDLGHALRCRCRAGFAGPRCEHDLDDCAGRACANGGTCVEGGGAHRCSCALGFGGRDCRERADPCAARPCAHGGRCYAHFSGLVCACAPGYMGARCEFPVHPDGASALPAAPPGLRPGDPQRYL
- procedure-text: SPR (Biacore 8K), antibody captured on anti-human Fc, DLL3 in solution
- Description: The affinity and kinetic properties of the humanized anti-DLL3 antibody to human DLL3 were analyzed using a Biacore 8K instrument. […] After completion of each cycle of the experiment, the captured antibody was removed together with the antigen by washing with a 3M MgCl₂ solution at a flow rate of 30 μL/min for 30 s to complete the regeneration of the chip. The raw data were analyzed using Biacore Insight Evaluation Software (3.0.12.15655) software and fitted with a (1:1) Langmuir model.
measurement-type: kon (M⁻¹ s⁻¹)
The reply should be a number in M⁻¹ s⁻¹, with the unit left off.

See these solved cases before continuing.
DLL3-26 camelid-derived anti-DLL3 chimeric antibody (antibody, human IgG1, V domains shown) VH: QVQLVESGGGSVQAGGSLRLSCAASGDIYSSSYVGWFRQAPGKEREGVAIIYTSGDSTYYANSVKGRFTISQDKAKKTLYLQMNSLKPEDTAMYYCAARFAIDNSNYWGQGTQVTVSS :: 382000
hDLL3-122 camelid-derived humanized anti-DLL3 antibody (antibody, V domains shown) VH: EVQLVESGGGLVQPGGSLRLSCAASGDTYRSYCMGWFRQAPGKEREGVADIVSDGSTSYADSVKGRFTISRDNSKNTLYLQMNSLRAEDTAVYYCAVDRGGSGGYCYTGRYDYWGQGTLVTVSS :: 98500
hDLL3-3-1 camelid-derived humanized anti-DLL3 antibody (antibody, human IgG1, V domains shown) VH: EVQLVESGGGLVQPGGSLRLSCAASTYTISSGYMGWFRQAPGKEREGVAAIYIGGSTTLYADSVKGRFTISRDNSKNTLYLQMNSLRAEDTAVYYCAAQLRPNSAYHPLDGRKYNYWGQGTLVTVSS :: 1.91e+06

// below: kon requested for another binder
Returns the measured kon for the input binder. Input: DLL3-122 camelid-derived anti-DLL3 chimeric antibody (antibody, human IgG1, V domains shown) VH: QVQLVESGGGSVQAGGSLRLSCTASGDTYRSYCMGWFRKAPGKEREGVADIVSDGSTSYADSVKGRFTISKDNAKNTLYLQMNSLKPEDTAMYYCAVDRGGSGGYCYTGRYDYWGQGTQVTVSS
93200
